Species: Homo sapiens
Assay: Biomagnification factors in human
Type: ADME, organism-based
Conditions: in vivo
Field: class. Source value: BMF. Ranges: small value = under 60, mid value = from 60 up to 90, large value = 90 and over

Before answering, review these 5 worked examples.
- compound: "Clc1cc(Cl)c(-c2cc(Cl)c(Cl)cc2Cl)cc1Cl [2,2',4,4',5,5'-HEXACHLOROBIPHENYL]"
  cat: "large value"
- compound: "Brc1ccc(Oc2ccc(Br)cc2Br)c(Br)c1"
  cat: "large value"
- compound: "Clc1cc(Cl)cc(Cl)c1 [1,3,5-TRICHLOROBENZENE]"
  cat: "small value"
- compound: "Clc1cc(Cl)c(-c2cc(Cl)c(Cl)c(Cl)c2Cl)cc1Cl"
  cat: "large value"
- compound: "O=S1OC[C@@H]2[C@H](CO1)[C@@]1(Cl)C(Cl)=C(Cl)[C@@]2(Cl)C1(Cl)Cl (some centres undefined)"
  cat: "small value"

Request: Would you mind sorting Brc1ccc(Oc2cc(Br)c(Br)cc2Br)c(Br)c1 into the appropriate category?
Result: large value

Request: Would you mind sorting ClC(Cl)=C(Cl)C(Cl)=C(Cl)Cl [HEXACHLOROBUTADIENE] into the appropriate category?
Result: small value

Request: Would you mind sorting Clc1cc(Cl)c(Cl)cc1Cl into the appropriate category?
Result: small value

Request: Would you mind sorting OC(c1ccc(Cl)cc1)(c1ccc(Cl)cc1)C(Cl)(Cl)Cl [DICOFOL] into the appropriate category?
Result: mid value

Request: Would you mind sorting CCCN(CCC)c1c([N+](=O)[O-])cc(C(F)(F)F)cc1[N+](=O)[O-] [TRIFLURALIN] into the appropriate category?
Result: small value

Request: Would you mind sorting Clc1cc(Cl)c(Cl)c(Cl)c1Cl [PENTACHLOROBENZENE] into the appropriate category?
Result: small value

Request: Would you mind sorting Cl[C@H]1[C@H](Cl)[C@@H](Cl)[C@H](Cl)[C@@H](Cl)[C@@H]1Cl [BETA-HEXACHLOROCYCLOHEXANE] into the appropriate category?
Result: mid value

Request: Would you mind sorting O=S(=O)(c1ccc(Cl)cc1)c1cc(Cl)c(Cl)cc1Cl [TETRADIFON] into the appropriate category?
Result: large value

Request: Would you mind sorting C=Cc1ccccc1 [STYRENE] into the appropriate category?
Result: small value

Request: Would you mind sorting ClC1(Cl)C2(Cl)C3(Cl)C4(Cl)C(Cl)(Cl)C5(Cl)C3(Cl)C1(Cl)C5(Cl)C24Cl (centres undefined) [MIREX] into the appropriate category?
Result: mid value

Request: Would you mind sorting ClC1=C(Cl)[C@]2(Cl)[C@@H]3[C@@H]4C[C@@H]([C@H]5O[C@@H]45)[C@@H]3[C@@]1(Cl)C2(Cl)Cl [DIELDRIN] into the appropriate category?
Result: large value

Request: Would you mind sorting Brc1c(Br)c(Br)c(Oc2c(Br)c(Br)c(Br)c(Br)c2Br)c(Br)c1Br into the appropriate category?
Result: small value

Request: Would you mind sorting Clc1c(Cl)c(Cl)c(Cl)c(Cl)c1Cl [PERCHLOROBENZENE] into the appropriate category?
Result: small value
